- Type: in vivo, healthy female subjects
- STATED CONDITIONS: female, human, plasma, po, AUC0-t, ethinylestradiol/levonorgestrel 0.03/0.15 mg alone, period 1 day 1, N = 22; mean ± SD
OUTCOME MEASURE: AUC(0-t) (ng·h/mL)
Give the value, in units of ng·h/mL, as a plain number.

Query: In one line, give reported AUC(0-t) of the entry `C#C[C@]1(O)CC[C@H]2[C@@H]3CCc4cc(O)ccc4[C@H]3CC[C@@]21C` .
Result: 0.378

###

- Type: in vivo, healthy female subjects
- STATED CONDITIONS: female, human, plasma, po, AUCinf, ethinylestradiol/levonorgestrel 0.03/0.15 mg alone, period 1 day 1, N = 22; mean ± SD
OUTCOME MEASURE: AUC(0-inf) (ng·h/mL)
Expressed in ng·h/mL, but write only the number.

Query: Recall and state the measured AUC(0-inf) for C#C[C@]1(O)CC[C@H]2[C@@H]3CCc4cc(O)ccc4[C@H]3CC[C@@]21C [Ethinylestradiol] .
Result: 0.441

###

- Type: in vivo, healthy female subjects
- STATED CONDITIONS: female, human, plasma, po, AUC0-t, Central Value, Test, period 2, day 12 (with upadacitinib 30 mg QD); repeated measures analysis
OUTCOME MEASURE: AUC(0-t) (ng·h/mL)
The answer is to be given in ng·h/mL; state only the numeric part.

Query: Provide measured AUC(0-t) value, entry: C#C[C@]1(O)CC[C@H]2[C@@H]3CCc4cc(O)ccc4[C@H]3CC[C@@]21C [Ethinylestradiol]
Result: 0.39
